B1: Pre-mRNA-processing factor 40 homolog B, residues 274 to 332; numbered along this chain, Q6NWY9 (parent)
chain: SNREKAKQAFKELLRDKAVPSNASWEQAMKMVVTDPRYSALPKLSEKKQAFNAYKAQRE

# Variants of: B1
# PROTOCOL_DESCRIPTION: abundance fitness (aPCA) (normalised: wild type 0, dead -1); higher = more abundant; growth selection in yeast, the domain comes from the species named
# PARTICULARS: Homo sapiens
PROPERTY_NAME: abundance fitness

1. K47F -0.304
2. N52D -0.038
3. D35S -0.716
4. Q57M -0.322
5. A56T -0.122
6. R58L 0.212
7. M31W -0.865
8. T34N 0.232
9. Q49N -0.481
10. P42F -0.749
11. N22C -0.211
12. V32D -0.347
13. F10H -0.132
14. Q49F -0.636
15. Q8F -0.412
16. K30P -0.146
17. N52E 0.253
18. Y54E -0.363
19. K5Q -0.07
20. E46T -0.631
21. Y38E -0.399
22. M31T -0.336
23. E26A -0.31
24. A23P -0.533
25. P36T -0.293
26. K55C 0.12
27. F51S -0.463
28. K55V -0.139
29. Q27P -0.531
30. N2H -0.83
31. A6E 0.172
32. K48L 0.122
33. L41C -0.438
34. K5C -0.134
35. Q49V -0.205
36. K17F -0.146
37. M31S -0.115
38. R3G -0.084
39. A18W -0.473
40. Q27N -0.174
41. V32E -0.166
42. D35P -0.905
43. A50C -0.008
44. K11D -0.386
45. E4L -0.23
46. S21G -0.103
